Below, each of the compounds is paired with its reported MIC80 value.
tested on: Nannizzia gypsea; test: Antifungal activity against Microsporum gypseum Cmccfmza after 24 hrs by spectrophotometric analysis; format: functional
Provide the reading as a plain figure in µg/mL.

// below: answered compounds
- Compound: "Cc1ccnc2c1C(=O)c1sc([N+](=O)[O-])cc1C2=O"
  Target under test: "Nannizzia gypsea"
  Measured result: 2
- Compound: "Cc1ccnc2c1C(=O)c1scc([N+](=O)[O-])c1C2=O"
  Target under test: "Nannizzia gypsea"
  Measured result: 8
- Compound: "CC(C)c1cnc2c(c1)C(=O)c1sc([N+](=O)[O-])cc1C2=O"
  Target under test: "Nannizzia gypsea"
  Measured result: 1
- Compound: "O=C1c2cc([N+](=O)[O-])sc2C(=O)c2c(C(Br)Br)ccnc21"
  Target under test: "Nannizzia gypsea"
  Measured result: 16
- Compound: "OC(Cn1cncn1)(Cn1cncn1)c1ccc(F)cc1F"
  Target under test: "Nannizzia gypsea"
  Measured result: 32
- Compound: "Cc1cc[n+]([O-])c2c1C(=O)c1sc([N+](=O)[O-])cc1C2=O"
  Target under test: "Nannizzia gypsea"
  Measured result: 4
- Compound: "Cc1ccc(C(C)c2ccnc3c2C(=O)c2sc([N+](=O)[O-])cc2C3=O)o1 (stereo not drawn)"
  Target under test: "Nannizzia gypsea"
  Measured result: 1
- Compound: "O=C1c2cc([N+](=O)[O-])sc2C(=O)c2c(-c3ccco3)ccnc21"
  Target under test: "Nannizzia gypsea"
  Measured result: 8

Q) Using the record for "O=C1c2cc([N+](=O)[O-])sc2C(=O)c2cccnc21" , report its MIC80.
A) 0.5

Q) Record: "CC(C)(C)OC(=O)/C=C\c1ccnc2c1C(=O)c1sc([N+](=O)[O-])cc1C2=O"
A) 4

Q) Record: "CCc1ccnc2c1C(=O)c1sc([N+](=O)[O-])cc1C2=O"
A) 2

Q) Record: "CC(C)(C)OC(=O)/C=C/c1ccnc2c1C(=O)c1sc([N+](=O)[O-])cc1C2=O"
A) 4

Q) Record: "O=Cc1ccnc2c1C(=O)c1sc([N+](=O)[O-])cc1C2=O"
A) 2
